# method: Pharmacokinetic study in rats after oral administration of SYD extract and its single and combined TCM extracts (UPLC-MS/MS of plasma)
# recordedConditions: male, Sprague-Dawley, rat, plasma, po, 0.68 g/kg, MRT(0–∞), rat plasma, oral GU extract 0.68 g/kg, n = 6
experimentalReadout: MRT inf (h)

> print(dat)
                               smilesstring  experimentalreadout  unittag  endpointvalue
1  O=C1C[C@@H](c2ccc(O[C@@H]3O[C@H](CO)[C@@H](O)[C@H](O)[C@H]3O)cc2)Oc2cc(O)ccc21              MRT inf        h           1.19

====

# method: Pharmacokinetic study in rats after oral administration of SYD extract and its single and combined TCM extracts (UPLC-MS/MS of plasma)
# recordedConditions: male, Sprague-Dawley, rat, plasma, po, 8.25 g/kg, MRT(0–∞), rat plasma, oral SYD extract 8.25 g/kg, n = 6
Catalogue of compounds with associated MRT inf
experimentalReadout: MRT inf

compound	endpointValue
COc1ccc(CCO[C@@H]2O[C@H](CO[C@@H]3OC[C@H](O)[C@H](O)[C@H]3O)[C@@H](OC(=O)/C=C/c3ccc(O)c(OC)c3)[C@H](O[C@@H]3O[C@@H](C)[C@H](O)[C@@H](O)[C@H]3O)[C@H]2O)cc1O [Angoroside C, angoroside C]	7.01 h
O=C1C[C@@H](c2ccc(O[C@@H]3O[C@H](CO)[C@@H](O)[C@H](O)[C@H]3O)cc2)Oc2cc(O)ccc21	11.3 h
COC(=O)C1=CO[C@@H](O[C@@H]2O[C@H](CO)[C@@H](O)[C@H](O)[C@H]2O)[C@@H]2[C@@H](C)[C@@H](O)C[C@H]12	8.87 h
O=C(/C=C/c1ccc(O)c(O)c1)O[C@@H]1C[C@](O)(C(=O)O)C[C@@H](O)[C@H]1O	52.6 h
C[C@]1(OC(=O)/C=C/c2ccccc2)C[C@@H](O)[C@]2(O)C=CO[C@@H](O[C@@H]3O[C@H](CO)[C@@H](O)[C@H](O)[C@H]3O)[C@@H]21 [Harpagoside, harpagoside]	19.8 h

====

# method: Pharmacokinetic study in rats after oral administration of SYD extract and its single and combined TCM extracts (UPLC-MS/MS of plasma)
# recordedConditions: male, Sprague-Dawley, rat, plasma, po, 8.25 g/kg
experimentalReadout: AUC(0-inf)

> print(dat)
                               smilesstring  endpointvalue
1  O=C1C[C@@H](c2ccc(O[C@@H]3O[C@H](CO)[C@@H](O)[C@H](O)[C@H]3O)cc2)Oc2cc(O)ccc21    340 ng·h/mL

====

# method: Pharmacokinetic study in rats after oral administration of SYD extract and its single and combined TCM extracts (UPLC-MS/MS of plasma)
# recordedConditions: male, Sprague-Dawley, rat, plasma, po, 1.29 g/kg, AUC(0–∞), rat plasma, oral AS extract 1.29 g/kg, n = 6
experimentalReadout: AUC(0-inf)

> print(dat)
                               smilesstring  endpointvalue
1  O=C(/C=C/c1ccc(O)c(O)c1)O[C@@H]1C[C@](O)(C(=O)O)C[C@@H](O)[C@H]1O   2130 ng·h/mL

====

# method: Pharmacokinetic study in rats after oral administration of SYD extract and its single and combined TCM extracts (UPLC-MS/MS of plasma)
# recordedConditions: male, Sprague-Dawley, rat, plasma, po, 4.01 g·kg^−1 (extract), MRT(0–∞), rat plasma, oral LJ + AS + GU extract, n = 6
Catalogue of compounds with associated MRT inf
experimentalReadout: MRT inf (h)

> print(dat)
                               smilesstring  experimentalreadout  endpointvalue
1  COC(=O)C1=CO[C@@H](O[C@@H]2O[C@H](CO)[C@@H](O)[C@H](O)[C@H]2O)[C@@H]2[C@@H](C)[C@@H](O)C[C@H]12              MRT inf           81.9
2  O=C1C[C@@H](c2ccc(O[C@@H]3O[C@H](CO)[C@@H](O)[C@H](O)[C@H]3O)cc2)Oc2cc(O)ccc21              MRT inf             16

====

Catalogue of compounds with associated AUC(0-inf)
# method: Pharmacokinetic study in rats after oral administration of SYD extract and its single and combined TCM extracts (UPLC-MS/MS of plasma)
# recordedConditions: male, Sprague-Dawley, rat, plasma, po, 2.43 g/kg, AUC(0–∞), rat plasma, oral AS + GU extract 2.43 g/kg, n = 6
experimentalReadout: AUC(0-inf) (ng·h/mL)

> print(dat)
                               smilesstring  experimentalreadout  unittag  endpointvalue
1  O=C(/C=C/c1ccc(O)c(O)c1)O[C@@H]1C[C@](O)(C(=O)O)C[C@@H](O)[C@H]1O           AUC(0-inf)  ng·h/mL           1980
2  O=C1C[C@@H](c2ccc(O[C@@H]3O[C@H](CO)[C@@H](O)[C@H](O)[C@H]3O)cc2)Oc2cc(O)ccc21           AUC(0-inf)  ng·h/mL            240

====

# method: Pharmacokinetic study in rats after oral administration of SYD extract and its single and combined TCM extracts (UPLC-MS/MS of plasma)
# recordedConditions: male, Sprague-Dawley, rat, plasma, po, 2.49 g/kg, MRT(0–t), rat plasma, oral SN extract 2.49 g/kg, n = 6
experimentalReadout: MRT last (h)

molecule	experimentalReadout	endpointValue
C[C@]1(OC(=O)/C=C/c2ccccc2)C[C@@H](O)[C@]2(O)C=CO[C@@H](O[C@@H]3O[C@H](CO)[C@@H](O)[C@H](O)[C@H]3O)[C@@H]21 [Harpagoside, harpagoside]	MRT last	4.75
COc1ccc(CCO[C@@H]2O[C@H](CO[C@@H]3OC[C@H](O)[C@H](O)[C@H]3O)[C@@H](OC(=O)/C=C/c3ccc(O)c(OC)c3)[C@H](O[C@@H]3O[C@@H](C)[C@H](O)[C@@H](O)[C@H]3O)[C@H]2O)cc1O [Angoroside C, angoroside C]	MRT last	3.03

====

# method: Pharmacokinetic study in rats after oral administration of SYD extract and its single and combined TCM extracts (UPLC-MS/MS of plasma)
# recordedConditions: male, Sprague-Dawley, rat, plasma, po, 4.5 g·kg^−1 extract, Cmax, rat plasma, oral LJ + SN extract, n = 6
experimentalReadout: Cmax

compound	experimentalReadout	endpointValue
C[C@]1(OC(=O)/C=C/c2ccccc2)C[C@@H](O)[C@]2(O)C=CO[C@@H](O[C@@H]3O[C@H](CO)[C@@H](O)[C@H](O)[C@H]3O)[C@@H]21 [Harpagoside, harpagoside]	Cmax	30 ng/mL
COc1ccc(CCO[C@@H]2O[C@H](CO[C@@H]3OC[C@H](O)[C@H](O)[C@H]3O)[C@@H](OC(=O)/C=C/c3ccc(O)c(OC)c3)[C@H](O[C@@H]3O[C@@H](C)[C@H](O)[C@@H](O)[C@H]3O)[C@H]2O)cc1O [Angoroside C, angoroside C]	Cmax	270 ng/mL
O=C(/C=C/c1ccc(O)c(O)c1)O[C@@H]1C[C@](O)(C(=O)O)C[C@@H](O)[C@H]1O [Chlorogenic acid, chlorogenic acid]	Cmax	1740 ng/mL
COC(=O)C1=CO[C@@H](O[C@@H]2O[C@H](CO)[C@@H](O)[C@H](O)[C@H]2O)[C@@H]2[C@@H](C)[C@@H](O)C[C@H]12 [Loganin, loganin]	Cmax	680 ng/mL

====

# method: in vivo
# recordedConditions: male, Sprague-Dawley, rat, po, 2.15 g/kg, Tmax
experimentalReadout: Tmax (min)

> print(dat)
                                   molecule  experimentalreadout  endpointvalue
1  C=C[C@H]1[C@H](O[C@@H]2O[C@H](CO)[C@@H](O)[C@H](O)[C@H]2O)OC=C2C(=O)OCC[C@H]21 [Sweroside, sweroside]                 Tmax           57.6

====

# method: Pharmacokinetic study in rats after oral administration of SYD extract and its single and combined TCM extracts (UPLC-MS/MS of plasma)
# recordedConditions: male, Sprague-Dawley, rat, plasma, po, 3.98 g·kg^−1, t1/2, rat plasma, oral SN + AS extract, n = 6
Catalogue of compounds with associated half-life

compound	half-life (h)
COc1ccc(CCO[C@@H]2O[C@H](CO[C@@H]3OC[C@H](O)[C@H](O)[C@H]3O)[C@@H](OC(=O)/C=C/c3ccc(O)c(OC)c3)[C@H](O[C@@H]3O[C@@H](C)[C@H](O)[C@@H](O)[C@H]3O)[C@H]2O)cc1O [Angoroside C, angoroside C]	10
C[C@]1(OC(=O)/C=C/c2ccccc2)C[C@@H](O)[C@]2(O)C=CO[C@@H](O[C@@H]3O[C@H](CO)[C@@H](O)[C@H](O)[C@H]3O)[C@@H]21 [Harpagoside, harpagoside]	16.6

Data origin: paper PMC6150365
